As shown below, each of these molecules has a reported pIC50 value.
Assay: Inhibition of Influenza B virus (B/Yokohama/UT2203/2005)) neuraminidase N294S mutant after 30 mins by fluorescence analysis
Please express pIC50 as -log10 of the molar concentration.

{"columns": ["Molecule", "pIC50"],
 "data": [
  ["CC(=O)N[C@H]1[C@H]([C@H](O)[C@H](O)CO)OC(C(=O)O)=C[C@@H]1NC(=N)N [ZANAMIVIR]", 7.47]
]}

Okay, next one:
Data request: Please give the measured pIC50 for this molecule: CO[C@@H]([C@@H]1OC(C(=O)O)=C[C@H](NC(=N)N)[C@H]1NC(C)=O)[C@H](O)CO [LANINAMIVIR]
Data returned: 7.31

----------
Experiment: Inhibition of Influenza B virus (B/Yokohama/UT3318/2005)) neuraminidase N294S mutant after 30 mins by fluorescence analysis
Recorded Endpoint: pIC50
FYI, pIC50 means -log10 of a concentration in mol per litre.

{"columns": ["Smiles Data", "Recorded Endpoint", "Recorded Number"],
 "data": [
  ["CC(=O)N[C@H]1[C@H]([C@H](O)[C@H](O)CO)OC(C(=O)O)=C[C@@H]1NC(=N)N", "pIC50", 7.70]
]}

Field: next compound
Data request: What does the record list as pIC50 for CO[C@@H]([C@@H]1OC(C(=O)O)=C[C@H](NC(=N)N)[C@H]1NC(C)=O)[C@H](O)CO ?
Data returned: 7.52
